Target: T1, human myostatin (human, UniProt O14793 267-375, biotinylated in selections and radioactive assays (site not stated))
T1 construct: Phage ELISA used both unbiotinylated and biotinylated myostatin; also called biotinylated human myostatin; myostatin-biotin
T1 sequence (looked up): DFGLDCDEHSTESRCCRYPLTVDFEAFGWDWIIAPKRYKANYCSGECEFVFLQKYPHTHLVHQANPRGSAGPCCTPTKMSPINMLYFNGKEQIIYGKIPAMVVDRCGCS
Test: radioactive equilibrium binding assay
pKd: −log10 of the molar value.
Measured pKd accompanies every entry in the list below.
endpoint_label: pKd

{"binder": "39633-F5 (I3Y, M83I) (designed binder, group M1-A50; V91L, I3Y, M83I) MTYPEIIIKVRGTQVVGSDMTVIVEFTNPFKETLRSVWVHLDGPGVTRPMKKMFREIPPKTTVQWEEVVRPWVSGHRKLIASIRTQYLIHLYGELDVQIQRRDYKDDDDK", "test_result": 7.49}
{"binder": "39633-D3 (V39M) (designed binder, group M2-A50; V39M) MTIPEIIIKVRGTQVVGSDMTVIVEFSNPFKETLRNVWMHLDGPGVTRPMKKMFSEIRPNSTVQWEEVVRPWVSGHRKLIASMPSLLHLHVYGELDVQIQRRDYKDDDDK", "test_result": 7.58}
{"binder": "39633-B3 (designed binder, group M1-A50; V91L) MTIPEIIIKVRGTQVVGSDMTVIVEFTNPLSQTLSAVWVHLDGPGVTRPMKKMFREIPPKTTVQWEEVVRPWVSGHRKLIASMRTQYLIHLYGELDVQIQRRDYKDDDDK", "test_result": 8.00}
{"binder": "39885-G5 (designed binder, group M1-A; also called M8-L (clone ID)) MTIPEIIIKVRGTQVVGSDMTVIVEFTNPLKETLRNVWVHLDGPGVTRPMKKMFPAIPYLSYVQWEEVVRPWVSGHRKLIASMPQLHHLHVYGELDVQIQRRDYKDDDDK", "test_result": 7.55}
{"binder": "39633-E4 (designed binder, group M2-A50; also called M019 (clone ID)) MTIPEIIIKVRGTQVVGSDMTVIVEFSNPFKETLRNVWVHLDGPGVTRPMKKMFSEIRPDSTVQWEEVVRPWVSGHRKLIASMPSLLHLHVYGELDVQIQRRDYKDDDDK", "test_result": 7.56}
{"binder": "39633-G1 (designed binder, group M1-A50; V91L) MTIPEIIIKVRGTQVVGSDMTVIVEFSNPFKETLRNVWVHLDGPGVTRPMKKMFREIPPKTTVQWEEVVRPWVSGHRKLIASMRTQYLIHLYGELDVQIQRRDYKDDDDK", "test_result": 7.41}
{"binder": "39885-B5 (F26V) (designed binder, group M1-A; F26V; also called M2-1 (clone ID)) MTIPEIIIKVRGTQVVGSDMTVIVEVTNPLKETLRNVWVHLDGPGVTRPMKKMFPAIPMNHKVQWEEVVRPWVSGHRKLIASMPQLFHIHVYGELDVQIQRRDYKDDDDK", "test_result": 7.60}
{"binder": "39633-A5 (V46I) (designed binder, group M3-A50; ΔS82, M83R, V46I) MTIPEIIIKVRGTQVVGSDMTVIVEFSNPFKETLRNVWVHLDGPGITRPMKKMFCEVRPNSIVQWEEVVRPWVSGHRKLIARCSLSPWHVYGELDVQIQRRDYKDDDDK", "test_result": 7.71}
{"binder": "39888-A11 (D42N) (designed binder, group M1-A; D42N; also called M14-1 (clone ID); 39888-All(D42N)) MTIPEIIIKVRGTQVVGSDMTVIVEFTNPLKETLRNVWVHLNGPGVTRPMKKMFPAIPMNHKVQWEEVVRPWVSGHRKLIASMPQLFHIHVYGELDVQIQRRDYKDDDDK", "test_result": 7.87}
{"binder": "39908-A3 (designed binder, group M3-A50; ΔS82, M83R; also called M09 (clone ID)) MTIPEIIIKVRGTQVVGSDMTVIVEFTNPFKETLRSVWVHLDGPGVTRPMKKMFCEIRPNRIVQWEEVVRPWVSGHRKLIARCSLSPWHVYGELDVQIQRRDYKDDDDK", "test_result": 7.96}
{"binder": "39633-A1 (designed binder, group M4-A50) MTIPEIIIKVRGTQVVGSDMTVIVEFTNPFKETLRSVWVHLDGPGVTRPMKKMFREIPPNTTVQWEEVVRPWVSGHRKLIASMPTHHLLHVYGELDVQIQRRDYKDDDDK", "test_result": 7.59}
{"binder": "39633-C1 (designed binder, group M1-A50; V91L; also called M17 (clone ID)) MTIPEIIIKVRGTQVVGSDMTVIVEFTNPFKETLRSVWVHLDGPGVTRPMKKMFREIPPKTTVQWEEVVRPWVSGHRKLIASMRTQYLIHLYGELDVQIQRRDYKDDDDK", "test_result": 7.40}
{"binder": "45927-A3 (designed binder, group M1-Aext) MTIPEIIIKVRGTQVVGSDMTVIVEFTNPLKETLRNVWVHLDGPGVTRPMKKMFLKILGCSTVQWEEVVRPWVSGHRKLIASMSMLGLPFSLRFIPVYGELDVQIQRRDYKDDDDK", "test_result": 7.27}
{"binder": "39908-E1 (designed binder, group M3-A50; FG loop -TLRPW; V39M; also called M04 (clone ID)) MTIPEIIIKVRGTQVVGSDMTVIVEFTNLWKEALRNVWMHLDGPGVTRPMKKMFREIATMSTVQWEEVVRPWVSGHRKLIASMTLRPWHVYGELDVQIQRRDYKDDDDK", "test_result": 7.83}
{"binder": "39973-F10 (designed binder, group M1-A) MTIPEIIIKVRGTQVVGSDMTVIVEFTNPLKETLRNVWVHLDGPGVTRPMKKMFATIPPYLPVQWEEVVRPWVSGHRKLIASMPQLIHLHVYGELDVQIQRRDYKDDDDK", "test_result": 7.54}
{"binder": "39885-C7 (designed binder, group M1-A; also called M3-1 (clone ID)) MTIPEIIIKVRGTQVVGSDMTVIVEFTNPLKETLRNVWVHLDGPGVTRPMKKMFRAIPMNHKVQWEEVVRPWVSGHRKLIASMPQLFHIHVYGELDVQIQRRDYKDDDDK", "test_result": 7.76}
